Where do the numbers come from? From PubChem BioAssay.

assay: growth inhibition of DIPG cells – cell-based, MIPE5.0 library, qHTS (AID 1347068); settings: SU-DIPG-XXV viability;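 as to IC50: cells exposed to compound for 48 hours before viability readout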
Results filed as inconclusive are left out. Active and inactive are the calls of the source. The limit is not given here; nearly all actives have IC50 up to about 30 µM.
Classes used: active, inactive

- smiles-text: "CCc1ccc(/C=C2/SC(=S)NC2=O)cc1"
  category: "inactive"
- smiles-text: "C=CC(=O)Nc1cc(N2CCN(CC)CC2)ccc1Nc1cc(N(C)C(=O)Nc2c(Cl)c(OC)cc(OC)c2Cl)ncn1"
  category: "inactive"
- smiles-text: "Nc1ccn([C@@H]2C(F)=C(CO)[C@@H](O)[C@H]2O)c(=O)n1"
  category: "inactive"
- smiles-text: "CC(C)(Cc1ccc2ccccc2c1)NC[C@@H](O)COc1cccc(Cl)c1C#N"
  category: "active"
- smiles-text: "N#Cc1ccc(N(Cc2ccc(Br)cc2)n2cnnc2)cc1"
  category: "inactive"
- smiles-text: "O=C(NCc1ccccc1)c1csc(Nc2ccncn2)n1"
  category: "active"
- smiles-text: "CCCN(CCC)C(=O)C1=Cc2ccc(-c3ccc(C(=O)N4CCCC4)cc3)cc2N=C(N)C1"
  category: "inactive"
- smiles-text: "CC(=O)c1ccc2c(c1)c1cc(C(C)=O)ccc1n2CCNC(C)C"
  category: "active"
- smiles-text: "CNC(=O)[C@H](Cc1ccccc1)NC(=O)[C@H](CC(C)C)[C@H](CSc1cccs1)C(=O)NO"
  category: "inactive"
- smiles-text: "CC1(C)S[C@H]2[C@H](NC(=O)[C@@H](N)c3ccc(O)cc3)C(=O)N2[C@H]1C(=O)O"
  category: "inactive"
- smiles-text: "CN1C(=O)N(c2cc(Cl)cc(Cl)c2)C(=O)[C@]12CN(Cc1cc(C(=O)O)cs1)C[C@H]2c1ccc(C#N)cc1"
  category: "inactive"
